# system under test: Fuc(a1-2)Gal(b1-3)GlcNAc(b1-3)[Neu5Ac(a2-6)Gal(b1-4)GlcNAc(b1-6)]Gal(b1-4)Glc
# measurement notes: glycan array binding signal (z-score within array); higher = stronger binding
# test parameters: glycan notation: IUPAC condensed, linker removed
About 410 targets per protein were measured; listed, in parts, are those with the strongest signals and a random draw of the rest.
reported metric: glycan array binding signal (z-score)
Please state the value as a number alone, without comment.

Qu. Param item = SP8524D-bot-399-27-399 (Bacteroides ovatus) (protein) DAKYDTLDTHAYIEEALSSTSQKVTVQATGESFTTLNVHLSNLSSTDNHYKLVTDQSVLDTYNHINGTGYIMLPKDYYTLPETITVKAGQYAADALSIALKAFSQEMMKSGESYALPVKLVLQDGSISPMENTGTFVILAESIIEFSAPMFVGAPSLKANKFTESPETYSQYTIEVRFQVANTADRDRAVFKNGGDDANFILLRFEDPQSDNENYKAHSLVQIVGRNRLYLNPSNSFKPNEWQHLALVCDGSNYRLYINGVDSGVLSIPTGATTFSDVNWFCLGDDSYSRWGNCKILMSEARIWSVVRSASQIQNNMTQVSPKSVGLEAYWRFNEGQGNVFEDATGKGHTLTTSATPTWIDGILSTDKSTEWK ; retrieve measured glycan array binding signal (z-score).
Ans. -0.348
